target: T1, recombinant human IL-6 (human, UniProt P05231 30-212, limits assumed); test: competition ELISA, rhIL-6 in solution against captured IL-6
T1 construct: also called rhIL6; human recombinant IL-6
recorded_endpoint: IC50 (nM)
Report as a plain number; the unit nM is understood.

Would you please look over these solved cases?
mAb 185 (antibody, V domains shown) VH: QVTLKESGPALVKPTQTLTLTCTFSGFSLTTSGMCVSWIRQPPGKALEWLALIYWDDDKRYNPSLRSRLTITKDTSKNQVVLTMTNMDPVDTATYYCARSYDDYLYYALDYWGQGTLVT VL: DVVMTQSPSSVSASVGDRVTITCRASQVIDSWLHWYQREPGKAPKILIYAATTLQRGVPSRFSGSGFGTEFTLTISGLQPEDFATYFCQQGYSFPITFGQGTRLEIK | 1.5
mAb 1338 (antibody, V domains shown) VH: QVTLKESGPTLVKPTQTLTLTCSFSGFSLSTSGVGVGWVRQPPGKALEWLAFIWWDDDKYYSPSLESRLTITKDTSKNQVVLTMTNMDPVDTATYYCARSADDYLYYSFDTWGQGTLVT VL: DIQMTQSPSSLSAFVGDGVTMTCWASQSINDYLNWYHQRPGEAPELLVFAASNLQIGVPSRFRGSGSETYFTLTINSLQPEDSGTYFCQSGHSFPLTFGGGTKLEI | 0.031

Now consider the entry below.
Quickly give me recorded IC50 for mAb 774 (antibody, V domains shown) VH: QVTLKESGPTLVKPTQTLTLTCSFSGFSLSTSGVGVGWVRQPPGKALEWLAFIFWDDDKYYSPSLESRLTITKDTSKNQVVLTMTNMDPVDTATYYCARSYDDYLYYALDYWGQGTLVT VL: DIQMTQSPSSLSAFVGDGVTMTCWASQSINDYLNWYHQRPGEAPELLVFAASNLQIGVPSRFRGSGSETYFTLTINSLQPEDSGTYFCQSGHSFPLTFGGGTKLEI
0.16
